meta.source: PubChem BioAssay (EPA / NIEHS)

Read-out: Glutamate-cysteine ligase regulatory (GCLM), GCLM (gene 2730)
Test: LTEA_HepaRG_GCLM: Life Technologies and Expression Analysis (LTEA) Assay for Glutamate-cysteine ligase regulatory (GCLM) using HepaRG (AID 2283500)
Conditions: mRNA level, 48 h; actives raise or lower the signal
Calls of active or inactive are those of the source. Rule for the calls: active = hit-call score of the fitted dose curve at least 0.9, where 1 is the maximum; inactive = score below 0.9.
Give your call using only these classes: YES for active, NO for inactive

Check the results log: what was the call for CCOP(=S)(OCC)SCSCC ?
NO

Check the results log: what was the call for Nc1ccc(Cl)cc1 ?
NO

Check the results log: what was the call for CC(C)(C)OOC(C)(C)C ?
NO

Check the results log: what was the call for O=P(Oc1ccccc1)(Oc1ccccc1)Oc1ccccc1 ?
YES

Check the results log: what was the call for Cc1ccc(O)cc1C ?
NO

Check the results log: what was the call for CCCCc1ccccc1 ?
NO

Check the results log: what was the call for CN(C)C(=O)Cl ?
NO

Check the results log: what was the call for CC(Cl)(Cl)C(=O)O ?
NO

Check the results log: what was the call for CCOP(=S)(Oc1ccc([N+](=O)[O-])cc1)c1ccccc1 (stereo unspecified) ?
NO

Check the results log: what was the call for CCOS(=O)(=O)OCC ?
NO

Check the results log: what was the call for ClC(Cl)c1ccccc1 ?
NO
